Origin of measurements: paper PMC10611619

# Experimental details: Biodistribution in Jurkat xenograft-bearing mice, 1 h p.i.
# Format: in vivo
# Measurement setup: female, CB17/SCID, mouse, lung, iv, total radioactivity, n = 5, mean ± SD, read-out: Biodistribution Lung
Where a SMILES comes first, the peptide text is derived from it. Side-chain parts run from the residue outwards. [ ]: non-standard residue; d: D form. The star is where a group is joined. 2Nal = N[C@@H](Cc1ccc2ccccc2c1)C(=O)O; dNMeOrn = CN[C@H](CCCN)C(=O)O; HYNIC = NNc1ccc(C(=O)*)cn1; 4Abz = Nc1ccc(C(=O)O)cc1; dDap = NC[C@@H](N)C(=O)O
Assay readout: tissue uptake at 1 h (%ID/g)
Supply the numeric figure in %ID/g, leaving out any unit text.

**Query** Reported tissue uptake at 1 h for C[C@@H](NC(=O)[C@@H](CCCNC(=N)N)NC(=O)[C@@H](CN)NC(=O)c1ccc(NN)nc1)C(=O)Nc1ccc(C(=O)NCCC[C@@H]2C(=O)N[C@@H](CCCNC(=N)N)C(=O)N[C@@H](Cc3ccc4ccccc4c3)C(=O)NCC(=O)N[C@H](Cc3ccc(O)cc3)C(=O)N2C)cc1 [[^99mTc]Tc-HYNIC-L6-CPCR4, metal not drawn] (cyclo([dY][dNMeOrn]([4Abz-dA-dR-dDap-HYNIC])R[2Nal]G)) : what is it?
**Result** 1.9
